# cell viability per entry
test system: HCI11 (cells of an ER-positive luminal breast cancer xenograft); assay: cell viability (% of vehicle); higher = less cytotoxic; conditions: 10 µM; 72 h;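 note: PDX cells carrying CMV promoter-driven luciferase, viability read as total photon flux per second by IVIS imaging following D-luciferin, vehicle control 0.1% DMSO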
Field format: numeric only.

These solved cases illustrate the format of a correct answer.
molecule	cell viability
Cl.Cl.Fc1ccc(C(c2ccc(F)cc2)N2CCN(CC=Cc3ccccc3)CC2)cc1 [Flunarizine 2HCl]	96.5
CC1(C)CCC(CN2CCN(c3ccc(C(=O)NS(=O)(=O)c4ccc(NCC5CCOCC5)c([N+](=O)[O-])c4)c(Oc4cnc5[nH]ccc5c4)c3)CC2)=C(c2ccc(Cl)cc2)C1	68.4

q: // returns reported cell viability for input CN1CCN(CCCN2c3ccccc3Sc3ccc(C(F)(F)F)cc32)CC1.Cl.Cl [Trifluoperazine 2HCl]
a: 82.1

q: Fill in the blank: the reported cell viability of CC(=O)SCC(Cc1ccccc1)C(=O)NCC(=O)OCc1ccccc1 (configuration not stated) is ____.
a: 93.3

q: If you can, please state the reported cell viability value of O[C@@H]1CO[C@H]2[C@@H]1OC[C@@H]2O [Isosorbide] .
a: 102

q: Can you share its cell viability? I mean this molecule: CON=C(C(=O)NC1C(=O)N2C(C(=O)O)=C(CSC(=O)c3ccco3)CSC12)c1csc(N)n1.Cl (configuration not stated) [Ceftiofur HCl]
a: 100

q: Give its cell viability value. Item: CCOC(=O)c1ccc(C#Cc2ccc3c(c2)C(C)(C)CCS3)nc1
a: 113

----------
tested on: HCI03 (cells of an ER-positive luminal breast cancer xenograft); experiment: cell viability (% of vehicle); higher = less cytotoxic; conditions: 10 µM; 72 h
cell viability under 100 gets Met, anything at or over 100 gets Not met.

Completed entries (count: 5):
compound	discrete label
Nc1ccc(S(=O)(=O)Nc2ncccn2)cc1 [Sulfadiazine]	Not met
CN(C)c1ccc(O)c2c1CC1CC3C(N(C)C)C(=O)C(C(N)=O)=C(O)C3(O)C(=O)C1=C2O.Cl (configuration not stated) [Minocycline HCl]	Met
CC1CCN(C(=O)CC#N)CC1N(C)c1ncnc2[nH]ccc12.O=C(O)CC(O)(CC(=O)O)C(=O)O (configuration not stated)	Not met
NC(=O)NN=Cc1ccc([N+](=O)[O-])o1 [Nitrofurazone]	Not met
Nc1nc(CC(=O)Nc2ccc(CCNCC(O)c3ccccc3)cc2)cs1 (configuration not stated) [Mirabegron (YM178)]	Not met

Note: attention shifts to another entry.
q: Does CC(=O)NCC1CN(c2ccc(N3CCOCC3)c(F)c2)C(=O)O1 (configuration not stated) [Linezolid] have cell viability strictly under 100?
a: Not met

----------
test system: HCI16 (cells of a triple-negative basal-like breast cancer xenograft); assay: cell viability (% of vehicle); higher = less cytotoxic; settings: 10 µM; 72 h
measured parameter: cell viability
Please give only the number in your answer, with no unit.

molecule	endpoint value
CCCC(CCC)C(=O)[O-].[Na+] [Valproic acid sodium salt (Sodium valproate)]	159
O=C1CCC(N2C(=O)c3ccccc3C2=O)C(=O)N1 (stereo not drawn) [Thalidomide]	114
Nc1ccn(CC(CO)OCP(=O)(O)O)c(=O)n1.O.O (stereo not drawn) [Cidofovir dihydrate]	96.8
NC(=O)Cc1cccc(C(=O)c2ccccc2)c1N [Nepafenac]	94.2

q: Recorded cell viability for CCCc1cc(=O)[nH]c(=S)[nH]1 [Propylthiouracil] , please?
a: 120

----------
Documented cell viability across a set of compounds
system: HCI03; assay: cell viability (% of vehicle); higher = less cytotoxic; settings: 10 µM; 72 h
Please reply with the value in numeric form only.

Solved cases below.
compound	cell viability
CNC(=C[N+](=O)[O-])NCCSCc1csc(CN(C)C)n1	120
CO/N=C(\C(=O)N[C@@H]1C(=O)N2C(C(=O)[O-])=C(COC(C)=O)CS[C@H]12)c1csc(N)n1.[Na+] [Cefotaxime (sodium salt)]	121
COC(=O)C1=COC(OC2OC(CO)C(O)C(O)C2O)C2C(CO)=CCC12 (centres undefined) [Geniposide]	158

Now turn to the next compound.
q: For the compound shown here, N#Cc1ccc(C(c2ccc(C#N)cc2)n2cncn2)cc1 , give the reported cell viability.
a: 99.1

Hello, the source for this data is the supplement of paper PMC6992640, in case you need it.
